Hey, just so you know, these numbers are from ChEMBL document CHEMBL5291721.

- SYSTEM UNDER TEST: Sodium-dependent noradrenaline transporter (Homo sapiens); further: assay procedure not described here
- Sequence (P23975 whole entry): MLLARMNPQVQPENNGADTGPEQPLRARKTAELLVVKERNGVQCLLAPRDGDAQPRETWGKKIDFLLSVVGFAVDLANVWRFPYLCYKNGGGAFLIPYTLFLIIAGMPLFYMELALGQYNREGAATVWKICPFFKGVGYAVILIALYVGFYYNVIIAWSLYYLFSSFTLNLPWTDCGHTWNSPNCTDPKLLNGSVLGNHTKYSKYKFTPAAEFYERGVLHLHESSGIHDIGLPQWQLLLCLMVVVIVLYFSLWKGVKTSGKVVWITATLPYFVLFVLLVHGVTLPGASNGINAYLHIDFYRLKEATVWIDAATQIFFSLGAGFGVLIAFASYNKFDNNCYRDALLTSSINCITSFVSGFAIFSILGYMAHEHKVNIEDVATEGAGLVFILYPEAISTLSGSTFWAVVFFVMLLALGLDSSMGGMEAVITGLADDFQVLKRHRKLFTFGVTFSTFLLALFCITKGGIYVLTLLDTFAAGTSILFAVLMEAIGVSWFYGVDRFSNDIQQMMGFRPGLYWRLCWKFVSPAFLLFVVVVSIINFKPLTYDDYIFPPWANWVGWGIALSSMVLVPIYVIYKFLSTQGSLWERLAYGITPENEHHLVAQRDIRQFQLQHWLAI
AC50 values by entry

| COMPOUND | SYSTEM UNDER TEST | AC50 |
| --- | --- | --- |
| O=C(O)CCCN1CCC(O[C@@H](c2ccc(Cl)cc2)c2ccccn2)CC1 | Sodium-dependent noradrenaline transporter (Homo sapiens) | > 30 µM |
| O=C1CC[C@@]2(O)[C@H]3Cc4ccc(O)c5c4[C@@]2(CCN3CC2CC2)[C@H]1O5 [NALTREXONE] | Sodium-dependent noradrenaline transporter (Homo sapiens) | > 30 µM |
| CN(C)c1ccc(C(=C2C=CC(=[N+](C)C)C=C2)c2ccc(N(C)C)cc2)cc1 | Sodium-dependent noradrenaline transporter (Homo sapiens) | 4.7 µM |
| CCC1C(C)=NN=C(c2ccc(OC)c(OC)c2)c2cc(OC)c(OC)cc21 (configuration not stated) | Sodium-dependent noradrenaline transporter (Homo sapiens) | > 30 µM |
| CC(C(=O)O)c1ccc(N2CC=CC2)c(Cl)c1 (configuration not stated) | Sodium-dependent noradrenaline transporter (Homo sapiens) | > 30 µM |
| CCC1(c2cccc(O)c2)CCCCN(C)C1 (configuration not stated) | Sodium-dependent noradrenaline transporter (Homo sapiens) | > 30 µM |
| C#C[C@]1(O)CC[C@H]2[C@@H]3CCC4=CC(=O)CC[C@@H]4[C@H]3CC[C@@]21CC | Sodium-dependent noradrenaline transporter (Homo sapiens) | > 30 µM |
| N/N=c1/cc2c(n[nH]1)CCN(C(=O)c1ccccc1)C2 | Sodium-dependent noradrenaline transporter (Homo sapiens) | > 30 µM |
| COCC1=C(C(=O)OC(C)OC(=O)OC(C)C)N2C(=O)[C@@H](NC(=O)/C(=N\OC)c3csc(N)n3)[C@H]2SC1 (some centres not stated) | Sodium-dependent noradrenaline transporter (Homo sapiens) | > 30 µM |
| CC(C)=CCC1C(=O)N(c2ccccc2)N(c2ccccc2)C1=O | Sodium-dependent noradrenaline transporter (Homo sapiens) | > 30 µM |
| COC(=O)C1=C(C)NC(C)=C(C(=O)OC)C1c1ccccc1[N+](=O)[O-] | Sodium-dependent noradrenaline transporter (Homo sapiens) | > 30 µM |
| COc1cc(Nc2c(C#N)cnc3cc(OCCCN4CCN(C)CC4)c(OC)cc23)c(Cl)cc1Cl | Sodium-dependent noradrenaline transporter (Homo sapiens) | 24.1 µM |
| CN(CCOc1ccc(NS(C)(=O)=O)cc1)CCc1ccc(NS(C)(=O)=O)cc1 [DOFETILIDE] | Sodium-dependent noradrenaline transporter (Homo sapiens) | > 30 µM |
| CCN(CC)CCNc1ccc(C)c2sc3ccccc3c(=O)c12 | Sodium-dependent noradrenaline transporter (Homo sapiens) | 2.68 µM |
| COc1cc2c(cc1OC)[C@H]1C[C@@H](OC(=O)[C@@H](N)C(C)C)[C@H](CC(C)C)CN1CC2 | Sodium-dependent noradrenaline transporter (Homo sapiens) | > 30 µM |
| CCOC(=O)C(c1c(O)c2ccccc2oc1=O)c1c(O)c2ccccc2oc1=O [ETHYL BISCOUMACETATE] | Sodium-dependent noradrenaline transporter (Homo sapiens) | > 30 µM |
| CCO/N=C(\C(=O)N[C@@H]1C(=O)N2C(C(=O)[O-])=C(Sc3nc(-c4cc[n+](C)cc4)cs3)CS[C@H]12)c1nsc(N)n1 | Sodium-dependent noradrenaline transporter (Homo sapiens) | > 30 µM |

----------
The following are reported AC50 results, target or system UniProt:P41595.
Sequence (P41595 whole entry): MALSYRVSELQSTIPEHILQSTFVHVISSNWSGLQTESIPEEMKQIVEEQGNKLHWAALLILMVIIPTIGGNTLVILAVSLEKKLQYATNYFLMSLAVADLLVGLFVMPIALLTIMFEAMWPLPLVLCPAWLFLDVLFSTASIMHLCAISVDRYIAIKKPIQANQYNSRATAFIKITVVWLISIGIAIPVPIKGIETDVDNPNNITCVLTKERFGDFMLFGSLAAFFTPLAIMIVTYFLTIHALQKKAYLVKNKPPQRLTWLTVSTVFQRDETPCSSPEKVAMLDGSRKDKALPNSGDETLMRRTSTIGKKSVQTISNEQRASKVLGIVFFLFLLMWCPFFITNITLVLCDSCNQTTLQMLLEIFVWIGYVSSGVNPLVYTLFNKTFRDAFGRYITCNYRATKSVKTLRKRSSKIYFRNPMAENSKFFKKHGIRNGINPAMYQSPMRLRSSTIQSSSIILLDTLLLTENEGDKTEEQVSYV
MEASURED PARAMETER: AC50

| MOLECULE | RESULT |
| --- | --- |
| COc1ccc2cccc(CCNC(C)=O)c2c1 [AGOMELATINE] | 0.879 µM |
| CCc1ccc(CCOc2ccc(CC3SC(=O)NC3=O)cc2)nc1 (stereo not given) [PIOGLITAZONE] | > 10 µM |
| Cc1ccc(-c2nc3ccc(C)cn3c2CC(=O)N(C)C)cc1 [ZOLPIDEM] | > 10 µM |
| O=C(CCCCCCC(=O)Nc1ccccc1)NO [VORINOSTAT] | > 10 µM |
| CC(C(=O)O)c1ccc(N2CC=CC2)c(Cl)c1 (stereo not given) [PIRPROFEN] | > 10 µM |

----------
Entries annotated with measured AC50
- SYSTEM UNDER TEST: UniProt:P28335
- Sequence (P28335 whole entry): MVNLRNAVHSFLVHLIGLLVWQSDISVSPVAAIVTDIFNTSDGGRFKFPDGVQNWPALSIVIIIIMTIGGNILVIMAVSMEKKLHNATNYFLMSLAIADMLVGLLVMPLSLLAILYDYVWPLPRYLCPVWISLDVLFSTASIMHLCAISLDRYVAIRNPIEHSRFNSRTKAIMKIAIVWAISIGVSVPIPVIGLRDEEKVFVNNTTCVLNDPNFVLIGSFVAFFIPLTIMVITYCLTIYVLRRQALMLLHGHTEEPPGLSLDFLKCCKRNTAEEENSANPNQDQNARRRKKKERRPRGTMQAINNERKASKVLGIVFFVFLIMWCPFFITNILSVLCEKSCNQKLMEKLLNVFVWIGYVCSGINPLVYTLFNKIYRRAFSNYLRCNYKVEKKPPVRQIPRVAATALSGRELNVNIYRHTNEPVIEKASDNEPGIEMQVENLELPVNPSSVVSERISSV

| MOLECULE | SYSTEM UNDER TEST | AC50 |
| --- | --- | --- |
| O=C(O)CCn1c2c(c3ccccc31)C[C@H](NS(=O)(=O)c1ccc(F)cc1)CC2 | UniProt:P28335 | > 30 µM |
| NC(N)=Nc1nc(CSCCC(N)=NS(N)(=O)=O)cs1 | UniProt:P28335 | > 10 µM |
| O=C(NC[C@H]1CN(c2ccc(N3CCOCC3=O)cc2)C(=O)O1)c1ccc(Cl)s1 | UniProt:P28335 | > 30 µM |
| CC(C)(Oc1ccc(C2CC2(Cl)Cl)cc1)C(=O)O (configuration not stated) [CIPROFIBRATE] | UniProt:P28335 | > 30 µM |
| Nc1ccc(/N=N/c2ccccc2)c(N)n1 | UniProt:P28335 | 1.91 µM |
| NS(=O)(=O)c1cc2c(cc1Cl)NC(CC1CCCC1)NS2(=O)=O (configuration not stated) [CYCLOPENTHIAZIDE] | UniProt:P28335 | > 30 µM |
| CC(C)NCC(O)COc1ccc(COCCOC(C)C)cc1 (configuration not stated) | UniProt:P28335 | > 30 µM |

----------
- SYSTEM UNDER TEST: Progesterone receptor (Homo sapiens); further: assay procedure not described here
- Sequence (P06401 whole entry): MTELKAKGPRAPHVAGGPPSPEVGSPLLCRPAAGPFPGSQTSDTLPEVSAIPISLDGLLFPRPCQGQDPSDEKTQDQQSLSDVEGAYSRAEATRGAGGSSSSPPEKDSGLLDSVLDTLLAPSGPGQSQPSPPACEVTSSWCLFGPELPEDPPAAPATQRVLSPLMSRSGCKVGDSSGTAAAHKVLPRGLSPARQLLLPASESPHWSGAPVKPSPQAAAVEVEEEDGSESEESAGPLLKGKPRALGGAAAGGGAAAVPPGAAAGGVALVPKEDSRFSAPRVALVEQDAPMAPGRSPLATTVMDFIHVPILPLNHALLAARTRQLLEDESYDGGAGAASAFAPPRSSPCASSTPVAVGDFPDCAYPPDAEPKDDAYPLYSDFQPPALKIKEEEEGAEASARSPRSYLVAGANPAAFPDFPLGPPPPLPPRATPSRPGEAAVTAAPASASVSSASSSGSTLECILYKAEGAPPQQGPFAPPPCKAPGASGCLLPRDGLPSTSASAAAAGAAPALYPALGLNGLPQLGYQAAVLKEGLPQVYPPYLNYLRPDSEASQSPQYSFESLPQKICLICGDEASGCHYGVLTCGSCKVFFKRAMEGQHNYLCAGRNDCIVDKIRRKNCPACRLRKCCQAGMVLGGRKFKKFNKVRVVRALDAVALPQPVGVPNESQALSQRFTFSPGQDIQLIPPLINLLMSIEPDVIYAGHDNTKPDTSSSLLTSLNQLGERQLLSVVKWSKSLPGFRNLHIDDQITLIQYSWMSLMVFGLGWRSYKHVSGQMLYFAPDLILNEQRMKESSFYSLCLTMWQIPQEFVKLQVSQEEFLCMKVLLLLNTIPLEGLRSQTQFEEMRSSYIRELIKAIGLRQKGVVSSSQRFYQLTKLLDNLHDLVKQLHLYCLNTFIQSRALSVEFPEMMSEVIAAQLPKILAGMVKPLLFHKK
- Assay type: functional

| COMPOUND | SYSTEM UNDER TEST | AC50 |
| --- | --- | --- |
| CC(C)C(=O)Nc1ccc([N+](=O)[O-])c(C(F)(F)F)c1 [FLUTAMIDE] | Progesterone receptor (Homo sapiens) | > 10 µM |
| O=C(O)CCn1c2c(c3ccccc31)C[C@H](NS(=O)(=O)c1ccc(F)cc1)CC2 | Progesterone receptor (Homo sapiens) | > 30 µM |
| Cc1cc2c(OCC(CNC(C)(C)C)OC(=O)c3ccccc3)cccc2[nH]1 (centres undefined) | Progesterone receptor (Homo sapiens) | > 30 µM |
| CN(C)[C@@H]1C(O)=C(C(N)=O)C(=O)[C@@]2(O)C(O)=C3C(=O)c4c(O)ccc(Cl)c4[C@@H](O)[C@H]3C[C@@H]12 | Progesterone receptor (Homo sapiens) | > 30 µM |

----------
Consider the following AC50 values measured on UniProt O43193.
Sequence (O43193 whole entry): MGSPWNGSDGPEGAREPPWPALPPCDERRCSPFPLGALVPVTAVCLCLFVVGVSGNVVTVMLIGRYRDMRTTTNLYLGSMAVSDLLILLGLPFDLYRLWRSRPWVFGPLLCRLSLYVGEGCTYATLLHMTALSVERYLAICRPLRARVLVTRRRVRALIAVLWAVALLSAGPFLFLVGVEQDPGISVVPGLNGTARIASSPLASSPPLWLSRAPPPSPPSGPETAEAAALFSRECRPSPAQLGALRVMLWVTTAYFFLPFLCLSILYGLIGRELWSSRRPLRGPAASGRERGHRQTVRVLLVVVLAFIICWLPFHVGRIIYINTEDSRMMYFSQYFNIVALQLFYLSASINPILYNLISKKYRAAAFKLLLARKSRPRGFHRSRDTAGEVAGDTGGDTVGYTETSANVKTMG

| COMPOUND | AC50 |
| --- | --- |
| OCc1cc([C@@H](O)CNCCCCCCOCCOCc2c(Cl)cccc2Cl)ccc1O [VILANTEROL] | 14 µM |
| COc1c(N2CCNC(C)C2)c(F)cc2c(=O)c(C(=O)O)cn(C3CC3)c12 (stereo unspecified) [GATIFLOXACIN] | > 10 µM |
| CCN(CC)CCNC(=O)c1cc(Cl)c(N)cc1OC [METOCLOPRAMIDE] | > 10 µM |
| CN1CCCC(n2nc(Cc3ccc(Cl)cc3)c3ccccc3c2=O)CC1 (stereo unspecified) [AZELASTINE] | > 30 µM |
| NC[C@H]1O[C@H](O[C@H]2[C@H](O)[C@@H](O[C@H]3O[C@H](CO)[C@@H](O)[C@H](N)[C@H]3O)[C@H](N)C[C@@H]2N)[C@H](O)[C@@H](O)[C@@H]1O [KANAMYCIN] | > 10 µM |
| CC(=O)NS(=O)(=O)c1ccc(N)cc1 [SULFACETAMIDE] | > 10 µM |
| O=C(OCCN1CCOCC1)c1cccnc1Nc1cccc(C(F)(F)F)c1 [MORNIFLUMATE] | > 30 µM |
| CC(C)NCC(O)COc1ccc(COCCOC(C)C)cc1 (stereo unspecified) [BISOPROLOL] | > 10 µM |
| CC(=O)N(CC(O)CO)c1c(I)c(C(=O)NCC(O)CO)c(I)c(C(=O)NCC(O)CO)c1I (stereo unspecified) [IOHEXOL] | > 10 µM |
| O=C1NCCN1CCN1CCC(c2cn(-c3ccc(F)cc3)c3ccc(Cl)cc23)CC1 [SERTINDOLE] | 4.3 µM |
| COc1ccc2c(c1)C(=O)N(CCc1ccc(S(=O)(=O)NC(=O)NC3CCCCC3)cc1)C(=O)C2(C)C [GLIQUIDONE] | > 30 µM |
| NC(=O)c1cnccn1 [PYRAZINAMIDE] | > 30 µM |
| CN[C@@H]1[C@H](O)[C@H](NC)[C@H]2O[C@@]3(O)C(=O)C[C@@H](C)O[C@H]3O[C@@H]2[C@H]1O [SPECTINOMYCIN] | > 10 µM |
| O=C(Cn1ccnc1[N+](=O)[O-])NCc1ccccc1 [BENZNIDAZOLE] | > 30 µM |
| CCCCC(C)(O)C/C=C/[C@H]1[C@H](O)CC(=O)[C@@H]1CCCCCCC(=O)OC (stereo partly specified) [MISOPROSTOL] | > 30 µM |
| Nc1ncnc2c1ncn2[C@@H]1O[C@H](COP(=O)(O)O)[C@@H](O)[C@H]1O [ADENOSINE PHOSPHATE] | > 30 µM |
| CN(C)[C@@H]1C(O)=C(C(N)=O)C(=O)[C@@]2(O)C(O)=C3C(=O)c4c(O)ccc(Cl)c4[C@@H](O)[C@H]3C[C@@H]12 [DEMECLOCYCLINE] | > 10 µM |
| NC(=O)C[S+]([O-])C(c1ccccc1)c1ccccc1 (stereo unspecified) [MODAFINIL] | > 10 µM |
| Cc1c(C(=O)Nc2ccc(N3C[C@@H](C)O[C@@H](C)C3)nc2)cccc1-c1ccc(OC(F)(F)F)cc1 [SONIDEGIB] | > 10 µM |
| CN1C(=O)CC(C)(c2ccccc2)C1=O (stereo unspecified) [METHSUXIMIDE] | > 10 µM |
| CCN(CC)CCOC(=O)c1ccc(N)cc1 [PROCAINE] | > 10 µM |
| CCN1CCC[C@H]1CNC(=O)c1cc(S(N)(=O)=O)ccc1OC [LEVOSULPIRIDE] | > 10 µM |
| C[N+](C)(C)CC(=O)O [BETAINE] | > 30 µM |
| Cc1ccc(C(=O)c2cc(O)c(O)c([N+](=O)[O-])c2)cc1 [TOLCAPONE] | > 10 µM |
| CCCCCN(C)CCC(O)(P(=O)(O)O)P(=O)(O)O [IBANDRONIC ACID] | > 30 µM |
| NS(=O)(=O)c1cc2c(cc1Cl)NCNS2(=O)=O [HYDROCHLOROTHIAZIDE] | > 10 µM |
| CN1CCN(C(=O)OC2c3nccnc3C(=O)N2c2ccc(Cl)cn2)CC1 (stereo unspecified) [ZOPICLONE] | > 30 µM |
| CO/N=C(\C(=O)N[C@@H]1C(=O)N2C(C(=O)[O-])=C(C[N+]3(C)CCCC3)CS[C@H]12)c1csc(N)n1 | > 300 µM |
| Oc1ncnc2[nH]ncc12 [ALLOPURINOL] | > 10 µM |
| COc1ccc(C(=O)NCc2ccc(OCCN(C)C)cc2)cc1OC [ITOPRIDE] | > 30 µM |
| CC(C(=O)O)c1ccc(N2CC=CC2)c(Cl)c1 (stereo unspecified) [PIRPROFEN] | > 10 µM |
| CCCS(=O)(=O)Nc1ccc(F)c(C(=O)c2c[nH]c3ncc(-c4ccc(Cl)cc4)cc23)c1F [VEMURAFENIB] | > 30 µM |
| [H]/N=C(/N)c1ccc(NCc2nc3cc(C(=O)N(CCC(=O)O)c4ccccn4)ccc3n2C)cc1 [DABIGATRAN] | > 30 µM |
| COc1ccc2c(c1)c(CC(=O)OCC(=O)O)c(C)n2C(=O)c1ccc(Cl)cc1 [ACEMETACIN] | > 30 µM |
| Nc1nc2ccc(OC(F)(F)F)cc2s1 [RILUZOLE] | > 30 µM |
| CC1=CC(=O)c2ccccc2C1=O [MENADIONE] | > 10 µM |
